Data origin: patent US20250313548A1

Please go through the items and note down their pIC50.
biological target: human, KCNT1 (Homo sapiens (Human)); test: FLIPR Tl/K Flux Assay; settings: HEK293 cells stably expressing human KCNT1; Tl+ flux stimulated with EC80 of agonist Loxapine
pIC50: −log10 of the molar value.

- compound: "Cn1nc(C(F)(F)F)nc1C(=O)N[C@H]1CCCn2nc(-c3ccnc(C4CC4)c3)cc21 [Compound I-499a]"
  pIC50: "> 6.60"
- compound: "CC(C)Oc1cc(C(=O)N[C@H]2CCn3nc(-c4ccnc(C5CC5)c4)cc32)ccn1 [Compound I-542a]"
  pIC50: "> 6.60"
- compound: "O=C(N[C@H]1CCCn2nc(-c3ccnc(C(F)(F)F)c3)cc21)c1ccc(F)c(C(F)(F)F)c1 [Compound I-410a]"
  pIC50: "> 6.60"
- compound: "O=C(N[C@H]1CCc2nn(-c3ccnc(C(F)(F)F)c3)cc21)c1cc(F)cc(Cl)c1 [Compound I-396a]"
  pIC50: "> 6.60"
- compound: "COc1cc(-c2nc3c(o2)CCC[C@@H]3NC(=O)c2cccc(C(F)(F)F)c2)ccn1 [Compound I-249a]"
  pIC50: "> 6.60"

Return reported pIC50 values for all items listed beneath this line.
1. CC(F)(F)c1cc(-n2cc3c(n2)CC[C@@H]3NC(=O)c2cccc(C#N)c2)ccn1 [Compound I-274a]
2. O=C(N[C@H]1CCCn2nc(-c3ccnc(C(F)(F)F)c3)cc21)c1ccn(C(F)(F)F)n1 [Compound I-382a]

Ans.
1. > 6.60
2. > 6.60

Return reported pIC50 values for all items listed beneath this line.
1. COc1cc(-c2nc3c(o2)[C@H](NC(=O)c2cncc(C(F)(F)F)n2)CCC3)c(Cl)cn1 [Compound I-513b]
2. O=C(N[C@H]1CCCc2nc(-c3ccnc(C(F)(F)F)c3)oc21)c1cncc(C(F)(F)F)n1 [Compound I-184a]
3. COc1cc(-c2cc3n(n2)CCCC[C@@H]3NC(=O)c2ccc(F)c(C#N)c2)ccn1 [Compound I-256a]
4. COc1cc(C(=O)N[C@H]2CCc3cnc(-c4ccnc(C(F)(F)F)c4)cc32)ccn1 [Compound I-196a]
5. CCOc1cc(-n2cc3c(n2)CCCCC3NC(=O)c2cccc(C(F)(F)F)c2)ccn1 (racemic)
6. N#Cc1cc(Cl)cc(C(=O)N[C@H]2CCCn3nc(-c4ccnc(C(F)(F)F)c4)cc32)c1 [Compound I-458a]
7. COc1cc(-c2cc3c(cn2)CCCC3NC(=O)c2cc(C(F)(F)F)nn2C)ccn1 (stereo not drawn)
8. CCc1cc(C#N)cc(C(=O)N[C@H]2CCCn3nc(-c4ccnc(C(F)(F)F)c4)cc32)c1 [Compound I-245a]

Ans.
["< 6.00", "> 6.60", "> 6.60", "6.00 to 6.30", "> 6.60", "> 6.60", "< 6.00", "> 6.60"]

* * *

molecular target: UniProt:Q5JUK3; experiment: FLIPR Tl/K Flux Assay; conditions: HEK293 cells stably expressing human KCNT1; Tl+ flux stimulated with EC80 of agonist Loxapine
Please go through the items and note down their IC50.

Worked cases, IC50 given:
- compound: "Cn1cc(C(=O)N[C@H]2CCCn3nc(-c4ccnc(C(F)(F)F)c4)cc32)c(C(F)F)n1 [Compound I-415a]"
  IC50: "< 250 nM"
- compound: "CCOc1cc(F)cc(C(=O)N[C@H]2CCCn3nc(-c4ccnc(C(F)(F)F)c4)cc32)c1 [Compound I-579a]"
  IC50: "< 250 nM"
- compound: "Cc1nn(C(F)(F)F)cc1C(=O)N[C@H]1CCn2nc(-c3ccnc(C4CC4)c3)cc21 [Compound I-555a]"
  IC50: "< 250 nM"
- compound: "N#Cc1cc(C(=O)N[C@H]2CCCn3nc(-c4ccnc(C(F)(F)F)c4)cc32)cc(C2CC2)c1 [Compound I-333a]"
  IC50: "< 250 nM"
- compound: "Cn1nc(C(F)(F)F)cc1C(=O)N[C@H]1CCCc2oc(-c3cc(C4CC4)ncc3F)nc21 [Compound I-217a]"
  IC50: "< 250 nM"
- compound: "CC(C)c1cc(C(=O)N[C@H]2CCCn3nc(-c4ccnc(C(F)(F)F)c4)cc32)n(C)n1 [Compound I-350a]"
  IC50: "< 250 nM"
- compound: "CCOc1cc(C(=O)N[C@H]2CCCn3nc(-c4ccnc(C(F)(F)F)c4)cc32)ccn1 [Compound I-282a]"
  IC50: "< 250 nM"
- compound: "COc1cc(-n2cc3c(n2)CCCC[C@@H]3NC(=O)c2cccc(C)c2)ccn1 [Compound I-376a]"
  IC50: "< 250 nM"

Return reported IC50 values for all items listed beneath this line.
1. Cn1nc(C(F)(F)F)cc1CC(=O)N[C@H]1CCCc2nn(-c3ccnc(C(F)(F)F)c3)cc21 [Compound I-53a]
2. N#Cc1cccc(C(=O)N[C@H]2CCn3cc(-c4ccnc(C(F)(F)F)c4)cc32)c1 (stereo in doubt) [Compound I-276a]
3. CC(C)c1nc(C(=O)N[C@H]2CCCn3nc(-c4ccnc(C(F)(F)F)c4)cc32)co1 [Compound I-441a]
4. COc1cc(-c2nc3c(o2)[C@@H](NC(=O)c2cccc(C(F)(F)F)c2)CCC3)c(Cl)cn1 [Compound I-167a]
5. COc1cc(-n2cc3c(n2)CC[C@@H]3NC(=O)c2ccc(F)c(C#N)c2)ccn1 [Compound I-259a]
6. Cn1nc(C(F)(F)F)cc1C(=O)NC1CCCCn2nc(-c3ccnc(C4CC4)c3)cc21 (single isomer, unassigned) [Compound I-67]
7. O=C(N[C@H]1CCn2nc(-c3ccnc(C(F)(F)F)c3)cc21)C12CC(Cl)(C1)C2 [Compound I-490a]
8. N#Cc1cc(F)cc(C(=O)N[C@H]2CCn3nc(-c4ccnc(C(F)(F)F)c4)cc32)c1 [Compound I-323a]

Ans.
> 1000 nM
< 250 nM
< 250 nM
< 250 nM
< 250 nM
< 250 nM
< 250 nM
< 250 nM

Return reported IC50 values for all items listed beneath this line.
1. O=C(N[C@H]1CCn2nc(-c3ccnc(C(F)(F)F)c3)cc21)[C@@H]1C[C@H]1C(F)(F)F [I-488^]
2. Cc1cc(Cl)cc(C(=O)N[C@@H]2CCc3nn(-c4ccnc(C(F)(F)F)c4)cc32)c1 [Compound I-98b]

Ans.
< 250 nM
> 1000 nM

Return reported IC50 values for all items listed beneath this line.
1. Cc1nc(C(F)(F)F)c(C(=O)N[C@H]2CCCn3nc(-c4ccnc(C(F)(F)F)c4)cc32)s1 [Compound I-406a]
2. COc1cc(-c2nc3c(o2)CCC[C@H]3NC(=O)c2cncc(C(F)(F)F)n2)c(F)cn1 [Compound I-503b]

Ans.
1: 250 to 500 nM; 2: > 1000 nM

Return reported IC50 values for all items listed beneath this line.
1. N#Cc1cc(F)cc(C(=O)N[C@H]2CCCCn3nc(-c4ccnc(C5CC5)c4)cc32)c1 [Compound I-265a]
2. Cn1nc(C(F)(F)F)nc1C(=O)N[C@H]1CCn2nc(-c3cc(C(F)(F)F)ncc3Cl)cc21 [Compound I-142a]

Ans.
["< 250 nM", "< 250 nM"]

* * *

target: human, KCNT1 (Homo sapiens (Human), UniProt Q5JUK3); assay: FLIPR Tl/K Flux Assay; conditions: HEK293 cells stably expressing human KCNT1; Tl+ flux stimulated with EC80 of agonist Loxapine
Sequence (Q5JUK3 whole entry): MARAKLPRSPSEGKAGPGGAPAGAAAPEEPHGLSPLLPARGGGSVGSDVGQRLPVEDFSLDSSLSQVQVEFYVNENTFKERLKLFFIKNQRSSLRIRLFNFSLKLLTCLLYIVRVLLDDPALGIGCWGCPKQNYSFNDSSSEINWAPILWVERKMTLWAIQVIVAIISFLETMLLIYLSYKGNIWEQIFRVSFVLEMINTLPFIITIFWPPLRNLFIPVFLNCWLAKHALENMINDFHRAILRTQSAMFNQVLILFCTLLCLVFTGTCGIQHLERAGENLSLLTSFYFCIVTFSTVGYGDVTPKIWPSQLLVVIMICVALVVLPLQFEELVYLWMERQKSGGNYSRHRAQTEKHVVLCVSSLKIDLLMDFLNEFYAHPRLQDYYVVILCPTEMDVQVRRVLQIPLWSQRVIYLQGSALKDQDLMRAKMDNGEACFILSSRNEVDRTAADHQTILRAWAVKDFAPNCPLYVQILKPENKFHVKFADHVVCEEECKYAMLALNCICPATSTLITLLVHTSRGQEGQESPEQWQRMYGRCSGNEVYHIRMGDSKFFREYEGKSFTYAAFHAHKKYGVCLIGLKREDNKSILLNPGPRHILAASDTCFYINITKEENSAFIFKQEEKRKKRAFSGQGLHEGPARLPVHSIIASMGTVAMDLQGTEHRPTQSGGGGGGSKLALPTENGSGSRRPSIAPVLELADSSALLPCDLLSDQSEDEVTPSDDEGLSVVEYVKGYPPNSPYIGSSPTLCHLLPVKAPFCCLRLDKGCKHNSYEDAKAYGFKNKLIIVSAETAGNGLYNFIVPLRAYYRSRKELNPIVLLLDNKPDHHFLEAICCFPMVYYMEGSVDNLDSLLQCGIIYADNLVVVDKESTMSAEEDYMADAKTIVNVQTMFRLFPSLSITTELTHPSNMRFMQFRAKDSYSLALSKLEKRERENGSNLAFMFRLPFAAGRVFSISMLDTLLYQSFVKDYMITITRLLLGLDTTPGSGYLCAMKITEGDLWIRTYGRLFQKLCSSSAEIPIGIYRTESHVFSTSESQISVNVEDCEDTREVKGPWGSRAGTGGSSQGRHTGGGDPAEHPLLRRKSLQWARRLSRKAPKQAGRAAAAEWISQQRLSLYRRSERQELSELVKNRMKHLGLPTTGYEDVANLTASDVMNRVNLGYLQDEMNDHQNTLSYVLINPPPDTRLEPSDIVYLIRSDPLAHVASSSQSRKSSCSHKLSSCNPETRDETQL
pIC50: −log10 of the molar value.
Please go through the items and note down their pIC50.

- molecule: "Cn1nc(C(F)(F)F)cc1C(=O)N[C@H]1CCCn2nc(-c3cnc(C(F)(F)F)o3)cc21 [Compound I-317a]"
  pIC50: "6.00 to 6.30"

Return reported pIC50 values for all items listed beneath this line.
1. O=C(N[C@H]1CCCn2nc(-c3ccnc(C(F)(F)F)c3)cc21)c1cncc(C(F)(F)F)n1 [Compound I-437a]
2. CCOc1cc(-c2cc3n(n2)CC[C@@H]3NC(=O)c2cc(C(F)(F)F)nn2C)ccn1 [Compound I-254a]

Ans.
> 6.60
> 6.60

* * *

Please go through the items and note down their pIC50.
target: human, KCNT1 (Homo sapiens (Human)); test: FLIPR Tl/K Flux Assay; settings: HEK293 cells stably expressing human KCNT1; Tl+ flux stimulated with EC80 of agonist Loxapine
pIC50: −log10 of the molar value.

Worked cases, pIC50 given:
- compound: "COc1cc(-c2cc3n(n2)CC[C@@H]3NC(=O)c2cncc(C(F)(F)F)n2)c(F)cn1 [Compound I-576a]"
  tgt: "human, KCNT1 (Homo sapiens (Human))"
  reported.value: "> 6.60"
- compound: "COc1cc(-c2nc3c(o2)[C@@H](NC(=O)c2cncc(C(F)(F)F)n2)CCC3)c(F)cn1 [Compound I-173a]"
  tgt: "human, KCNT1 (Homo sapiens (Human))"
  reported.value: "6.30 to 6.60"
- compound: "Cn1nc(C(F)(F)F)cc1C(=O)NC1CCCn2nc(-c3ccnc(C(F)(F)F)c3)cc2C1 (stereo not drawn) [Compound I-465]"
  tgt: "human, KCNT1 (Homo sapiens (Human))"
  reported.value: "> 6.60"
- compound: "Cc1nn(C(F)(F)F)cc1C(=O)N[C@H]1CCCc2oc(-c3ccnc(C(F)(F)F)c3)nc21 [Compound I-557a]"
  tgt: "human, KCNT1 (Homo sapiens (Human))"
  reported.value: "> 6.60"
- compound: "Cc1nc(C(=O)N[C@H]2CCn3nc(-c4ccnc(C(C)(F)F)c4)cc32)n(C)n1 [Compound I-206a]"
  tgt: "human, KCNT1 (Homo sapiens (Human))"
  reported.value: "< 6.00"
- compound: "O=C(N[C@H]1CCCc2oc(-c3ccnc(C4CC4)c3)nc21)c1cc(C(F)(F)F)n(C(F)F)n1 [Compound I-130a]"
  tgt: "human, KCNT1 (Homo sapiens (Human))"
  reported.value: "> 6.60"

Return reported pIC50 values for all items listed beneath this line.
1. O=C(N[C@H]1CCn2nc(-c3ccnc(C(F)(F)F)c3)cc21)c1cc2cccnn2c1 [Compound I-291a]
2. O=C(N[C@H]1CCCn2nc(-c3ccnc(C(F)(F)F)c3)cc21)c1cnn(CC(F)(F)F)c1 [Compound I-435a]
3. O=C(N[C@H]1CCCn2nc(-c3ccnc(C(F)(F)F)c3)nc21)c1cc(F)cc(F)c1 [Compound I-234a]

Ans.
> 6.60
< 6.00
> 6.60
